Assay: Her2 expression decrease, cell viability multiplex – SKBR3 breast tumor cells, AlphaScreen, ATP viability, primary screen (AID 461);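 also: percent of carrier control wells set as 100% viability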
Details: SKBR3 Her2 protein level, 18-24 h, measured here: SKBR3 viability, ATP luminescence, at 10 µM
OUTCOME MEASURE: viability (%)
API: value field is a number in %; no unit string.

Answer with reported viability of COc1ccc(S(=O)(=O)N2CCN(c3ccc(C)cc3C)CC2)cc1OC 94.5

Answer with reported viability of CCn1cc(C(=O)NCCCOC)c(=O)c2cc(S(=O)(=O)N(C)C)ccc21 92

Answer with reported viability of O=C(NCCN1C(=O)C2C3C=CC(C3)C2C1=O)Nc1ccccn1 (stereo not given) 114

Answer with reported viability of Cc1ccc(CSc2nc3c(c(=O)[nH]2)CCC3)cc1 86.5

Answer with reported viability of Cc1c(NC(=O)c2ccc(CN3CCc4ccccc4C3)cc2)c(=O)n(-c2ccccc2)n1C 95
